Where do the numbers come from? From the supplement of paper PMC10307832.

- Tested on: NCI-H2228
- assay_remarks: relative viability (nuclei count vs DMSO), 5 days (fraction); higher = more cells survive
- test_parameters: first compound 0.3162 µM
In this section we review reported relative viability values for a set of compounds.
A bare number is all that is needed in reply.

These recorded examples may help you get a feel for the data.
NC(=O)Nc1cc(-c2cccc(F)c2)sc1C(=O)N[C@H]1CCCNC1 [AZD7762] + COc1cccc2cc(-c3nc([C@H]4CC[C@H](C(=O)O)CC4)n4ncnc(N)c34)[nH]c12 [OSI-027] (partner 0.5 µM) = 0.302
NC(=O)Nc1cc(-c2cccc(F)c2)sc1C(=O)N[C@H]1CCCNC1 [AZD7762] + O=C(c1cc(Cc2n[nH]c(=O)c3ccccc23)ccc1F)N1CCN(C(=O)C2CC2)CC1 [Olaparib] (partner 8 µM) = 0.311
NC(=O)Nc1cc(-c2cccc(F)c2)sc1C(=O)N[C@H]1CCCNC1 [AZD7762] + CC(C)C[C@H](NC(=O)[C@H](Cc1ccccc1)NC(=O)c1cnccn1)B(O)O [Bortezomib] (partner 0.002 µM) = 0.723
NC(=O)Nc1cc(-c2cccc(F)c2)sc1C(=O)N[C@H]1CCCNC1 [AZD7762] + Nc1nc2[nH]cc(CCc3ccc(C(=O)N[C@@H](CCC(=O)O)C(=O)O)cc3)c2c(=O)[nH]1 [Pemetrexed] (partner 0.2 µM) = 0.299
NC(=O)Nc1cc(-c2cccc(F)c2)sc1C(=O)N[C@H]1CCCNC1 [AZD7762] + CC1(C)CCC(c2ccc(Cl)cc2)=C(CN2CCN(c3ccc(C(=O)NS(=O)(=O)c4ccc(N[C@H](CCN5CCOCC5)CSc5ccccc5)c(S(=O)(=O)C(F)(F)F)c4)cc3)CC2)C1 [Navitoclax] (partner 0.5 µM) = 0.666

State, for NCI-H2228, measured relative viability of the compound listed here: NC(=O)Nc1cc(-c2cccc(F)c2)sc1C(=O)N[C@H]1CCCNC1 [AZD7762] + C[C@]1(O)C[C@@H](c2nc(-c3ccc4ccc(-c5ccccc5)nc4c3)c3c(N)nccn32)C1 [Linsitinib] (partner 1 µM)
0.289

State, for NCI-H2228, measured relative viability of the compound listed here: NC(=O)Nc1cc(-c2cccc(F)c2)sc1C(=O)N[C@H]1CCCNC1 [AZD7762] + CS(=O)(=O)CCNCc1ccc(-c2ccc3ncnc(Nc4ccc(OCc5cccc(F)c5)c(Cl)c4)c3c2)o1 [Lapatinib] (partner 2 µM)
0.34

State, for NCI-H2228, measured relative viability of the compound listed here: NC(=O)Nc1cc(-c2cccc(F)c2)sc1C(=O)N[C@H]1CCCNC1 [AZD7762] + CC(=O)c1c(C)c2cnc(Nc3ccc(N4CCNCC4)cn3)nc2n(C2CCCC2)c1=O [Palbociclib] (partner 0.5 µM)
0.283

###

- Tested on: NCI-H2342
- assay_remarks: relative viability (nuclei count vs DMSO), 5 days (fraction); higher = more cells survive
- test_parameters: first compound 0.08 µM
measure: relative viability
A bare number is all that is needed in reply.

These recorded examples may help you get a feel for the data.
C=C1C(=O)O[C@@H](CCCCCCCC)[C@@H]1C(=O)O [C-75] + CCNC(=O)c1noc(-c2cc(C(C)C)c(O)cc2O)c1-c1ccc(CN2CCOCC2)cc1 [Luminespib] (partner 0.01 µM) = 0.798
C=C1C(=O)O[C@@H](CCCCCCCC)[C@@H]1C(=O)O [C-75] + NC(=O)Nc1cc(-c2cccc(F)c2)sc1C(=O)N[C@H]1CCCNC1 [AZD7762] (partner 0.2 µM) = 0.569

Please find the next molecule below.
Return relative viability for the following molecule: Oc1nc(-c2ccc(C(F)(F)F)cc2)nc2c1CSCC2 [XAV939] + Cc1cc(Nc2cc(N3CCN(C)CC3)nc(Sc3ccc(NC(=O)C4CC4)cc3)n2)n[nH]1 [Tozasertib] (partner 0.1 µM)
0.592

###

- System: HOP-62
- assay_remarks: relative viability (nuclei count vs DMSO), 5 days (fraction); higher = more cells survive
- test_parameters: first compound 0.1581 µM
Note to self: relative viability under 0.7 means 1, ties and anything higher get 0.

CC1(C)CCC(c2ccc(Cl)cc2)=C(CN2CCN(c3ccc(C(=O)NS(=O)(=O)c4ccc(N[C@H](CCN5CCOCC5)CSc5ccccc5)c(S(=O)(=O)C(F)(F)F)c4)cc3)CC2)C1 [Navitoclax] + O=C(c1cc(Cc2n[nH]c(=O)c3ccccc23)ccc1F)N1CCN(C(=O)C2CC2)CC1 [Olaparib] (partner 8 µM) = 1
CC1(C)CCC(c2ccc(Cl)cc2)=C(CN2CCN(c3ccc(C(=O)NS(=O)(=O)c4ccc(N[C@H](CCN5CCOCC5)CSc5ccccc5)c(S(=O)(=O)C(F)(F)F)c4)cc3)CC2)C1 [Navitoclax] + NC(=O)Nc1cc(-c2cccc(F)c2)sc1C(=O)N[C@H]1CCCNC1 [AZD7762] (partner 0.2 µM) = 1
CC1(C)CCC(c2ccc(Cl)cc2)=C(CN2CCN(c3ccc(C(=O)NS(=O)(=O)c4ccc(N[C@H](CCN5CCOCC5)CSc5ccccc5)c(S(=O)(=O)C(F)(F)F)c4)cc3)CC2)C1 [Navitoclax] + N=C(N)NC(=N)NCCc1ccccc1 [Phenformin] (partner 250 µM) = 1
CC1(C)CCC(c2ccc(Cl)cc2)=C(CN2CCN(c3ccc(C(=O)NS(=O)(=O)c4ccc(N[C@H](CCN5CCOCC5)CSc5ccccc5)c(S(=O)(=O)C(F)(F)F)c4)cc3)CC2)C1 [Navitoclax] + CC(C)C[C@H](NC(=O)[C@H](Cc1ccccc1)NC(=O)c1cnccn1)B(O)O [Bortezomib] (partner 0.002 µM) = 0
CC1(C)CCC(c2ccc(Cl)cc2)=C(CN2CCN(c3ccc(C(=O)NS(=O)(=O)c4ccc(N[C@H](CCN5CCOCC5)CSc5ccccc5)c(S(=O)(=O)C(F)(F)F)c4)cc3)CC2)C1 [Navitoclax] + Cc1cc(Nc2cc(N3CCN(C)CC3)nc(Sc3ccc(NC(=O)C4CC4)cc3)n2)n[nH]1 [Tozasertib] (partner 0.1 µM) = 1

Is it true that relative viability reported for CC1(C)CCC(c2ccc(Cl)cc2)=C(CN2CCN(c3ccc(C(=O)NS(=O)(=O)c4ccc(N[C@H](CCN5CCOCC5)CSc5ccccc5)c(S(=O)(=O)C(F)(F)F)c4)cc3)CC2)C1 [Navitoclax] + CS(=O)(=O)N1CCN(Cc2cc3nc(-c4cccc5[nH]ncc45)nc(N4CCOCC4)c3s2)CC1 [Pictilisib] (partner 1 µM) is less than 0.7?
0

Is it true that relative viability reported for CC1(C)CCC(c2ccc(Cl)cc2)=C(CN2CCN(c3ccc(C(=O)NS(=O)(=O)c4ccc(N[C@H](CCN5CCOCC5)CSc5ccccc5)c(S(=O)(=O)C(F)(F)F)c4)cc3)CC2)C1 [Navitoclax] + CS(=O)(=O)CCNCc1ccc(-c2ccc3ncnc(Nc4ccc(OCc5cccc(F)c5)c(Cl)c4)c3c2)o1 [Lapatinib] (partner 2 µM) is less than 0.7?
0

###

- Tested on: NCI-H1355
- assay_remarks: relative viability (nuclei count vs DMSO), 5 days (fraction); higher = more cells survive
- test_parameters: first compound 1.265 µM
Note to self: relative viability under 0.7 means 1, ties and anything higher get -1.

# example entries with known answers
O=C(O)c1ccc(-c2c[nH]c3ncc(-c4ccccc4)cc23)cc1C1CCCC1 + CC(C)C[C@H](NC(=O)[C@H](Cc1ccccc1)NC(=O)c1cnccn1)B(O)O [Bortezomib] (partner 0.002 µM) = -1
O=C(O)c1ccc(-c2c[nH]c3ncc(-c4ccccc4)cc23)cc1C1CCCC1 + N=C(N)NC(=N)NCCc1ccccc1 [Phenformin] (partner 250 µM) = 1
O=C(O)c1ccc(-c2c[nH]c3ncc(-c4ccccc4)cc23)cc1C1CCCC1 + Nc1ncn([C@H]2C[C@H](O)[C@@H](CO)O2)c(=O)n1 [Decitabine] (partner 2 µM) = 1

For the next question, use this molecule.
Is it true that relative viability reported for O=C(O)c1ccc(-c2c[nH]c3ncc(-c4ccccc4)cc23)cc1C1CCCC1 + Nc1nc2[nH]cc(CCc3ccc(C(=O)N[C@@H](CCC(=O)O)C(=O)O)cc3)c2c(=O)[nH]1 [Pemetrexed] (partner 0.2 µM) is less than 0.7?
-1

###

- Test system: EPLC-272H
- assay_remarks: relative viability (nuclei count vs DMSO), 5 days (fraction); higher = more cells survive
- test_parameters: first compound 0.5 µM
measure: relative viability
A bare number is all that is needed in reply.

These recorded examples may help you get a feel for the data.
CC1(C)CCC(c2ccc(Cl)cc2)=C(CN2CCN(c3ccc(C(=O)NS(=O)(=O)c4ccc(N[C@H](CCN5CCOCC5)CSc5ccccc5)c(S(=O)(=O)C(F)(F)F)c4)cc3)CC2)C1 [Navitoclax] + O=C(CCCCCCC(=O)Nc1ccccc1)NO [Vorinostat] (partner 1 µM) = 0.282
CC1(C)CCC(c2ccc(Cl)cc2)=C(CN2CCN(c3ccc(C(=O)NS(=O)(=O)c4ccc(N[C@H](CCN5CCOCC5)CSc5ccccc5)c(S(=O)(=O)C(F)(F)F)c4)cc3)CC2)C1 [Navitoclax] + Cc1nc(NC(=O)N2CCC[C@H]2C(N)=O)sc1-c1ccnc(C(C)(C)C(F)(F)F)c1 [Alpelisib] (partner 2 µM) = 0.821
CC1(C)CCC(c2ccc(Cl)cc2)=C(CN2CCN(c3ccc(C(=O)NS(=O)(=O)c4ccc(N[C@H](CCN5CCOCC5)CSc5ccccc5)c(S(=O)(=O)C(F)(F)F)c4)cc3)CC2)C1 [Navitoclax] + N=C(N)NC(=N)NCCc1ccccc1 [Phenformin] (partner 250 µM) = 0.253

Please find the next molecule below.
Return relative viability for the following molecule: CC1(C)CCC(c2ccc(Cl)cc2)=C(CN2CCN(c3ccc(C(=O)NS(=O)(=O)c4ccc(N[C@H](CCN5CCOCC5)CSc5ccccc5)c(S(=O)(=O)C(F)(F)F)c4)cc3)CC2)C1 [Navitoclax] + CS(=O)(=O)N1CCN(Cc2cc3nc(-c4cccc5[nH]ncc45)nc(N4CCOCC4)c3s2)CC1 [Pictilisib] (partner 1 µM)
0.306
